src = patent US20250027068

Assign Enzyme Activity Endpoint Assay: Fc to each entry below.
TESTED SYSTEM: pooled human IgG
Give bare numbers, in ng/µL.

PRT-46 (protein) MANQEIRYSEVTPYHVTSVWTKGVTPPANFTQGEDVFHAPYVANQGWYDITKTFNGKDDLLCGAATAGNMLHWWFDQNKDQIDRYLEEHPEKAKINFNGEQMFDVKEAIDTKNDQLDSKLFEYFKEKAFPYLSTKHLGVFPDLVLDMFINGYRLSLTNHGPTPVKEGSKDPRGGFFDAVFTRGDQSKLLTSRHDFKEKNLKEISDLIKKELTEGKALGLSHTYANVRINHVINLWGADFDSNGNLKAIYVTDSDSNASIGMKRYFVGVNSAGKVAISAKEIKEDNIGAQVLGLFTLSTGQDSWNQTN    101

# input Requested field: Enzyme Activity Endpoint Assay: Fc. Item: PRT-35 (protein) MANQEIRYSEVTPYHVTSVWTKGVTPPANFTQGEDVFHAPYVANQGWYDITKTFNGKDDLLCGAATAGNMLHWWFDQNKDQIKRYLEEHPEKQKINFNGEQMFDVKEAIDTKDHQLDSKLFEYFKEKAFPYLSTKHLGVFPDHVIDMFINGYRLSLTNHGPTPVKEGSKDPRGGIFDAVFTRGDQSKLLTSRHDFKEKNLKEISDLIKKELTEGKALGLSHTYANVRINHVINLWGADFDSNGNLKAIYVTDSDSNASIGMKKYFVGVNSAGKVAISAKEIKEDNIGAQVLGLFTLSTGQDSWNQTN
# output 104
